Tested on: Saccharomyces cerevisiae
Test: Inhibition of Saccharomyces cerevisiae alpha-glucosidase at 10 uM using PNPG as substrate after 3 mins by UV-vis spectrophotometric method relative to control
Below, each entry is listed alongside its reported inhibition.

In the examples that follow, each entry is paired with its recorded inhibition.
1. OC[C@H]1C[C@@H](O)[C@H](O)[C@@H](O)[C@H]1CO (racemic) : 10.4%
2. C[C@H]1O[C@H](O[C@H]2[C@H](O)[C@@H](O)[C@@H](O[C@H]3[C@H](O)[C@@H](O)C(O)O[C@@H]3CO)O[C@@H]2CO)[C@H](O)[C@@H](O)[C@@H]1N[C@H]1C=C(CO)[C@@H](O)[C@H](O)[C@H]1O (stereo partly specified) : 22.8%
3. OC[C@H]1C[C@H](O)[C@@H](Cl)[C@H](O)[C@H]1CO (racemic) : 3.98%
4. OC[C@H]1C[C@H](O)[C@H](O)[C@@H](O)[C@H]1CO (racemic) : 3.42%

# input Need inhibition of OC[C@H]1C[C@H](Cl)[C@@H](O)[C@H](O)[C@H]1CO (racemic) , thanks.
# output 12.2%

# input Look at this compound and give its reported inhibition. OC[C@H]1C[C@H](O)[C@@H](O)[C@H](O)[C@H]1CO (racemic)
# output 2.13%

====

System: Prunus dulcis
Test: Inhibition of almond beta-glucosidase at 20 uM using PNPG as substrate after 3 mins by UV-vis spectrophotometric method relative to control
ENDPOINT: inhibition (%)
Give a bare numeral; the unit % is implied.

A selection of reference data follows.
1. OC[C@H]1C[C@H](O)[C@@H](O)[C@H](O)[C@H]1CO (racemic) : 5.97
2. OC[C@H]1C[C@H](O)[C@@H](Cl)[C@H](O)[C@H]1CO (racemic) : 11.7
3. C[C@H]1O[C@H](O[C@H]2[C@H](O)[C@@H](O)[C@@H](O[C@H]3[C@H](O)[C@@H](O)C(O)O[C@@H]3CO)O[C@@H]2CO)[C@H](O)[C@@H](O)[C@@H]1N[C@H]1C=C(CO)[C@@H](O)[C@H](O)[C@H]1O (stereo not given in full) : 25
4. OC[C@H]1C[C@H](Cl)[C@@H](O)[C@H](O)[C@H]1CO (racemic) : 5.2

Kindly consider the entry below.
# input What value of measured inhibition is listed for OC[C@H]1C[C@@H](O)[C@H](O)[C@@H](O)[C@H]1CO (racemic) ?
# output 5.22

====

Items are presented alongside their recorded inhibition.
Test system: Saccharomyces cerevisiae
Assay: Inhibition of Saccharomyces cerevisiae alpha-glucosidase at 120 uM using PNPG as substrate after 3 mins by UV-vis spectrophotometric method relative to control
Express your answer as a number followed by its unit.

1) OC[C@H]1C[C@H](O)[C@@H](O)[C@H](O)[C@H]1CO (racemic) : 16%
2) C[C@H]1O[C@H](O[C@H]2[C@H](O)[C@@H](O)[C@@H](O[C@H]3[C@H](O)[C@@H](O)C(O)O[C@@H]3CO)O[C@@H]2CO)[C@H](O)[C@@H](O)[C@@H]1N[C@H]1C=C(CO)[C@@H](O)[C@H](O)[C@H]1O (stereo partly drawn) [ACARBOSE] : 78%

# next molecule below
# input # inhibition lookup, item OC[C@H]1C[C@H](Cl)[C@@H](O)[C@H](O)[C@H]1CO (racemic)
# output 55%

====

System: Prunus dulcis
Assay: Inhibition of almond beta-glucosidase at 60 uM using PNPG as substrate after 3 mins by UV-vis spectrophotometric method relative to control
ENDPOINT: inhibition (%)
Give the number; % is assumed, so skip it.

1) OC[C@H]1C[C@H](O)[C@H](O)[C@@H](O)[C@H]1CO (racemic) : 4.29
2) OC[C@H]1C[C@@H](O)[C@H](O)[C@@H](O)[C@H]1CO (racemic) : 30.8
3) OC[C@H]1C[C@H](Cl)[C@@H](O)[C@H](O)[C@H]1CO (racemic) : 20.6
4) OC[C@H]1C[C@H](O)[C@@H](O)[C@H](O)[C@H]1CO (racemic) : 15.4
5) C[C@H]1O[C@H](O[C@H]2[C@H](O)[C@@H](O)[C@@H](O[C@H]3[C@H](O)[C@@H](O)C(O)O[C@@H]3CO)O[C@@H]2CO)[C@H](O)[C@@H](O)[C@@H]1N[C@H]1C=C(CO)[C@@H](O)[C@H](O)[C@H]1O (stereo partly specified) : 52

# input Which inhibition is listed for OC[C@H]1C[C@H](O)[C@@H](Cl)[C@H](O)[C@H]1CO (racemic) ?
# output 21.1

====

System: Saccharomyces cerevisiae
Experiment: Inhibition of Saccharomyces cerevisiae alpha-glucosidase at 20 uM using PNPG as substrate after 3 mins by UV-vis spectrophotometric method relative to control
Let's look at some molecules and their measured inhibition.
Could you give the number and then its unit, please?

Use these answered entries as a reference point.
1. OC[C@H]1C[C@H](O)[C@H](O)[C@@H](O)[C@H]1CO (racemic) : 5.59%
2. C[C@H]1O[C@H](O[C@H]2[C@H](O)[C@@H](O)[C@@H](O[C@H]3[C@H](O)[C@@H](O)C(O)O[C@@H]3CO)O[C@@H]2CO)[C@H](O)[C@@H](O)[C@@H]1N[C@H]1C=C(CO)[C@@H](O)[C@H](O)[C@H]1O (stereo partly specified) [ACARBOSE] : 30%
3. OC[C@H]1C[C@H](O)[C@@H](O)[C@H](O)[C@H]1CO (racemic) : 3.6%
4. OC[C@H]1C[C@H](O)[C@@H](Cl)[C@H](O)[C@H]1CO (racemic) : 7.9%
5. OC[C@H]1C[C@H](Cl)[C@@H](O)[C@H](O)[C@H]1CO (racemic) : 13.3%

Turning to the following molecule.
# input // query inhibition value for entry OC[C@H]1C[C@@H](O)[C@H](O)[C@@H](O)[C@H]1CO (racemic)
# output 12.1%
